B1: CPEB3 Ribozyme (parent)
chain: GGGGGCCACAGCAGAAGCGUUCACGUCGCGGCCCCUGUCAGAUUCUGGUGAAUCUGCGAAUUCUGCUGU

Variants of: B1
Protocol summary: self-cleavage, relative activity (ratio to wild type); higher = more cleavage; co-transcriptional
Please note: True applies when self-cleavage is 0.7 or greater, and False applies otherwise.

The examples below pair each entry with its known result.
1) GGGGGCCACAGCAGAAGCGUUCACGUCGCCGCCCCUGUCAGAUUCUGGUGGAUCUGCGAAUUCUGCUGU [G30C A51G]: False
2) GGGGGCCACAGCAGAAGCGUUCACGUCGCGGCCCCUUUCAGCUUCUGGUGAAUCUGCGAAUUCUGCUGU [G37U A42C]: False

[ask] # bool: self-cleavage of GGGGGCCACAGCAGAACCGUUCACGUCGCGGCCGCUGUCAGAUUCUGGUGAAUCUGCGAAUUCUGCUGU [G17C C34G] >= 0.7
[reply] False

[ask] # bool: self-cleavage of GGGGGCCACAGCAGAAGCGUUCUCGUCGCGGCCCCUGUCAGAUUCUGGUUAAUCUGCGAAUUCUGCUGU [A23U G50U] >= 0.7
[reply] True

[ask] # bool: self-cleavage of GGGGGCCACAGCAGAAGCGUUCACGUCGCGGCCCCAGUCAGUUUCUGGUGAAUCUGCGAAUUCUGCUGU [U36A A42U] >= 0.7
[reply] False

[ask] # bool: self-cleavage of GGGGGCCACAGCAGAAGCGUUCACGUCGCGGCCCCUGUCAGAUUCUGGUGAAUCUGCUAAUUCCGCUGU [G58U U64C] >= 0.7
[reply] True

[ask] # bool: self-cleavage of GGGGCCCACAGCAGAAGCGUUCACGUCGCGGCCCCUGUCAGAUUCUGGUGACUCUGCGAAUUCUGCUGU [G5C A52C] >= 0.7
[reply] False
